# Assay Method Text: CCTE_Shafer_MEA_acute_network_burst_percentage: CCTE's Neural Acute Assay for Percentage of Network Bursts, Shafer Lab (AID 2284022);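 further: curves fitted for loss so actives lower network burst percentage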
Active and inactive are the calls of the source. How the source made its calls: active means hit-call score of the fitted dose curve at least 0.9, where 1 is the maximum; inactive means score below 0.9.
In this exercise, the only acceptable responses are active, inactive

A selection of reference data follows.
| Compound | Label Value |
| --- | --- |
| CCC(=O)C(CC(C)N(C)C)(c1ccccc1)c1ccccc1 (configuration not stated) | inactive |
| CC(=O)OC(c1ccccc1)C(Cl)(Cl)Cl (configuration not stated) | inactive |
| ClC1(Cl)C2(Cl)C3(Cl)C4(Cl)C(Cl)(Cl)C5(Cl)C3(Cl)C1(Cl)C5(Cl)C24Cl (configuration not stated) | inactive |
| CC(C)(C)CC(C)(C)c1ccc(O)cc1 | inactive |
| CCN1CCC2(CC1)COc1cc3c(cc12)N(C(=O)c1ccc(-c2ccc(-c4nnc(C)o4)cc2C)cc1)CC3 | active |

Consider the additional compound presented here.
# input Any idea what this test logged for `CC(C)(C)c1cc(O)ccc1O` ?
# output inactive
